read-out: Cytochrome P450 2C19 (Homo sapiens); assay: LTEA_HepaRG_CYP2C19: Life Technologies and Expression Analysis (LTEA) Assay for CYP2C19 using HepaRG (AID 2283482); details: mRNA level, 48 h; actives raise or lower the signal
Active and inactive are the calls of the source. Rule for the calls: active = hit-call score of the fitted dose curve at least 0.9, where 1 is the maximum; inactive = score below 0.9.
Classes used: active, inactive

In [3]: df
Out[3]:
                                    compound     group
 0  CO/N=C(/C1=NOCCO1)c1ccccc1Oc1ncnc(Oc2ccccc2Cl)c1F    active
 1                 N#CN=C1SCCN1Cc1ccc(Cl)nc1    active
 2    CC(C)Oc1cccc(NC(=O)c2ccccc2C(F)(F)F)c1    active
 3  CC(C)(C)C(=O)C(Oc1ccc(Cl)cc1)n1cncn1 (configuration not stated)    active
 4                    CNC(=O)Oc1cccc2ccccc12  inactive
 5                  CCNC(=O)NC(=O)C(C#N)=NOC  inactive
 6  CC(C)NC(=O)N1CC(=O)N(c2cc(Cl)cc(Cl)c2)C1=O  inactive
 7  CCOc1cc(C(C)(C)C)ccc1C1COC(c2c(F)cccc2F)=N1 (configuration not stated)    active
 8                CC1(C)CON(Cc2ccccc2Cl)C1=O    active
 9            Cc1nc(N(C)C)nc(OC(=O)N(C)C)c1C    active
10     COP(=S)(OC)Oc1ccc([N+](=O)[O-])c(C)c1  inactive
11              CNC(=O)N(C)c1nnc(C(C)(C)C)s1  inactive
12  CC1(C)C(C(=O)OC(C#N)c2cccc(Oc3ccccc3)c2)C1(C)C (configuration not stated)    active
13        Cn1c(-c2ccccc2)cc(-c2ccccc2)[n+]1C    active
14             CC(C)N1C(=O)c2ccccc2NS1(=O)=O  inactive
15      COC(=O)NC(=S)Nc1ccccc1NC(=S)NC(=O)OC    active
16               Nc1c(Cl)c(Cl)nc(C(=O)O)c1Cl  inactive
